tested on: DU-145; test: NCI tumour cell line growth inhibition, 48 h
Calls of active or inactive are those of the source. No stated cut-off is given here; in the data, active = GI50 up to about 1.1 µM and inactive = higher.
Can you tell me GI50 for the items I'm about to list?

So what's the measured GI50 for this one? CCN(CC)Cc1nc(C2CCC([N+](=O)[O-])O2)no1 (stereo unspecified)
25.7 µM (inactive)

Lookup CC(=O)c1cc2c(s1)C(=O)c1sccc1C2=O
0.0553 µM (active)

Continue with CCn1ncc2c1nc(-c1ccccc1)c[n+]2[O-]
5.82 µM (inactive)

Next: O=C(CSCC(=O)N/N=C/c1ccc2c(c1)OCO2)N/N=C/c1ccc2c(c1)OCO2
> 100 µM (inactive)

Do the same for CNC(=O)N(CCC#N)CCN(CCN(C(=O)NC)c1ccccc1)C(=O)NC please
> 100 µM (inactive)

And C1CSCCSS[C@@H]2CCCCC2SC1 (stereo partly specified) ?
> 100 µM (inactive)

Next: CC1(C)O[C@@H](CO)[C@H]([C@@]23OC[C@H]4OC(C)(C)OC4[C@@H]2OC(C)(C)O3)O1 (stereo partly specified)
> 100 µM (inactive)

Input CC(=O)/C(=C\I)c1ccccc1
3.38 µM (inactive)

Next molecule up: O=C1Oc2ccc([N+](=O)[O-])cc2N/C1=C\C(=O)c1ccccc1
> 100 µM (inactive)

# repeat for COc1cc(C)cc2c1C(=O)C(NC(C)=O)=CC2=O
> 100 µM (inactive)

Next molecule: O=c1ccn(CC2(CO)CC(Cc3ccccc3)C2)c(=O)[nH]1 (stereo unspecified)
> 100 µM (inactive)

---

system: NCI-H23; assay: NCI tumour cell line growth inhibition, 48 h
The source made the active and inactive calls. Cut-off read from the data, not from the text of the source: active = GI50 up to about 1.1 µM and inactive = higher.
For each of the compounds below, state its GI50.

For the record Cc1[nH]c2ccccc2c1/C=N/c1ccc(Oc2ccccc2)cc1 , what value of GI50 is listed for NCI-H23?
16 µM (inactive)

Subsequent entry: Nc1nc(N)c2ncn(-c3ccc(Cl)c(Cl)c3)c2n1
15.9 µM (inactive)

Repeat for the following compound: COC(=O)c1cc(Br)c(Br)n1C
> 100 µM (inactive)

Repeat for the following compound: COC(=O)C1(CCCCl)CCCN1C(=O)OC(C)(C)C (configuration not stated)
> 100 µM (inactive)

Now try O=C1Cc2c([nH]c3ccccc23)-c2ccccc2N1 .
16 µM (inactive)

And CC1(C)O[C@@H](CCl)C[C@@H](C#N)O1 ?
> 100 µM (inactive)

How about this compound: CCCCOC(=O)NC(=O)c1cn(CCCOC(=O)CCCCCCCCC(=O)OCCCn2cc(C(=O)NC(=O)OCCCC)c(=O)[nH]c2=O)c(=O)[nH]c1=O
> 100 µM (inactive)

And what about the compound NC1=NN(c2ccccc2)C2(O)c3ccncc3C3=NN(c4ccccc4)C(=O)C132 (configuration not stated) ?
> 100 µM (inactive)

Next up: Cc1nc2c(n1C(C)(C)C)C(=O)c1ccccc1C2=O
37.8 µM (inactive)

Then Cc1ccc2oc(=O)c(C(=O)Nc3nc(C45CC6CC(CC(C6)C4)C5)cs3)cc2c1 ?
> 100 µM (inactive)

Moving on to Cc1ccc2c(O)cc(-c3cc(C)sc3C)nc2n1
2.25 µM (inactive)

And then C/C=C1/CC(C(=O)OC)N(C(=O)OCc2ccccc2)C1=S (configuration not stated) , what is it?
> 100 µM (inactive)

Do the same for COc1ccc(Sc2ccccc2N)cc1 please
43.6 µM (inactive)

Follow-up entry: NC(=S)N/N=C1\CCc2ccccc2C1
> 100 µM (inactive)

Let us now turn to Clc1ccc(Nc2nnc(CNc3ccc(-c4nnc(Nc5ccc(Cl)cc5)o4)cc3)o2)cc1
15.9 µM (inactive)

Also check CC(=O)NCCCCCCNC(C)=O [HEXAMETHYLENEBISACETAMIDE]
9160 µM (inactive)

Moving on to the next compound: Cc1cc(S(=O)(=O)Nc2nnc3c4ccccc4cnn23)c(S)cc1Cl
63 µM (inactive)

Likewise for O=C(NNC(=S)Nc1ccc(Cl)cc1)C12CC3CC(CC(C3)C1)C2 ?
7.5 µM (inactive)

Also CCCCCN1C(=O)C(Cc2ccccc2)N=C(c2ccc(O)cc2)c2cc(Cl)ccc21 (configuration not stated) , if possible.
4.98 µM (inactive)

Input Cc1ccc(S(=O)(=O)c2ccc([N+](=O)[O-])o2)cc1
3.52 µM (inactive)

Can you handle Nc1ccc(C(=O)N/C(=C\c2cccc([N+](=O)[O-])c2)c2nc3c4c(ccc3[nH]2)C(=O)c2ccccc2C4=O)cc1 next?
10.8 µM (inactive)

Same again, this time with C/C(CN1C(=O)c2ccccc2C1=O)=N\NS(C)(=O)=O
> 100 µM (inactive)

Subsequent entry: Cc1ccc(NC(=O)C2C(=O)N(c3ccc(C)c(C)c3)C(=O)/C2=N/O)cc1C (configuration not stated)
> 100 µM (inactive)

Can you handle Cc1nc(O)c(O)c(CN2CCCCC2)n1 next?
> 100 µM (inactive)

Another compound to look at: COc1cccc2c1C(=O)c1c(O)c3c(c(O)c1C2=O)C[C@@](O)(/C(C)=N/NC(=O)c1ccc(Cl)c(Cl)c1)C[C@@H]3OC1CC(N)C(O)C(C)O1 (some centres not stated)
0.0592 µM (active)

Do the same for COc1cccc(C2CC(=O)c3cc(N4CCCC4)ccc3N2)c1 (configuration not stated) please
0.0265 µM (active)

Then what about the compound CN(C)N1C(=O)c2ccccc2NC1c1ccccc1 (configuration not stated) ?
> 100 µM (inactive)

Request: CN(C)/N=N/c1nc2c(c(=O)n(C)c(=O)n2C)n1CC1CO1 (configuration not stated)
12.2 µM (inactive)

Would you kindly repeat that for COc1cc(Nc2nc3ccc(C(F)(F)F)cc3nc2-c2ccccc2)cc(OC)c1OC ?
67.5 µM (inactive)

Now the same for COc1ccc([C@@]23OC[C@@H]4[C@@H](OC[C@@H]42)c2cc(OC)c(OC)cc23)cc1OC
> 100 µM (inactive)

Also COc1ccc(-c2cc(=O)c3c(OC)c(OC)c(OC)cc3o2)cc1 , if possible.
40.6 µM (inactive)

Now try O=C(Nc1ccc(Cl)cc1)c1cc(S(=O)(=O)Nc2n[nH]c(Nc3ccc4ccccc4c3)n2)c(SSc2cc(Cl)c(C(=O)Nc3ccc(Cl)cc3)cc2S(=O)(=O)Nc2n[nH]c(Nc3ccc4ccccc4c3)n2)cc1Cl .
24.5 µM (inactive)

Cool, now C=C1c2[nH]c3c([N+](=O)[O-])c(OC)ccc3c2CCN1C(C)=O
> 100 µM (inactive)

COc1ccccc1C1=C2C(=O)N(C)C(c3ccccc3OC)=C2C(=O)N1C , same question.
59 µM (inactive)

Please do the same for CNC(=O)N(CCC#N)CCN(CCN(C(=O)NC)c1ccccc1)C(=O)NC as well.
> 100 µM (inactive)

Here is the next compound: O=C(CCC1CCCCN1)Nc1ccc2c(c1)C(=O)c1ccc(NC(=O)CCN3CCCCC3)cc1C2=O (configuration not stated)
2.21 µM (inactive)

Next entry: COC(=O)C(NC(=O)CSc1nnc(COc2ccc(Cl)cc2)n1-c1ccccc1)C(C)C (configuration not stated)
25.4 µM (inactive)

---

system: Malme-3M; experiment: NCI tumour cell line growth inhibition, 48 h
The source made the active and inactive calls. No stated cut-off is given here; in the data, active = GI50 up to about 1.1 µM and inactive = higher. Where a SMILES comes first, the peptide text is derived from it. [ ]: non-standard residue; d: D form. The star is where a group is joined. ξ: configuration not given here. ξD = NC(CC(=O)O)C(=O)O; Ac3c = NC1(C(=O)O)CC1; Boc = CC(C)(C)OC(=O)*; OBn = c1ccc(CO*)cc1
Pick from t (active), f (inactive) when you respond.

In this assay, the call recorded for COc1ccc(/C=C2\C[C@H]3[C@@H]4CC=C5C[C@@H](O)CC[C@]5(C)[C@H]4CC[C@]3(C)\C2=N\O)cc1 was what?
f

What do you have for Cc1ccc2c(c1)-c1c(C#N)c(N)nc(-c3ccc(Cl)cc3)c1CCS2(=O)=O ?
f

And c1ccc(C2SCc3nc4cc5ccccc5cc4n32)cc1 (stereo not given) ?
f

Next compound: COC(=O)C1(NC(=O)C(CC(=O)OCc2ccccc2)NC(=O)OC(C)(C)C)CC1 (stereo not given) (Boc-[ξD](OBn)-[Ac3c]-OMe)
f

Also CNc1cc2oc(=O)cc(C)c2cc1C , if possible.
f

Try this compound next: COc1ccc(C2OC(=O)c3c2ccc2ccccc32)c(C)c1 (stereo not given)
t

Another compound to check: CN(C)Cc1cc(C=O)cc(CN(C)C)c1O
f

// repeat for OC1c2ccccc2CC12Cc1ccccc1C2 (stereo not given) and report
f

Can you handle COc1cc(OC)cc(-n2c(N)c(-c3nc4ccccc4s3)c3ccc([N+](=O)[O-])cc3c2=O)c1 next?
f

And the next one, NNC(=O)/C(=C/c1ccc(Cl)c(Cl)c1)NC(=O)c1ccccc1 ?
f

These measurements were taken from ChEMBL document CHEMBL1201862.
